Test Name: Mutagenicity in Salmonella typhimurium TA1537 in presence of rat liver S9 fraction by AMES test
Type: toxicity, subcellular
Study Conditions: salmonella enterica subsp. enterica serovar typhimurium
Property Measured: Activity

1. Cc1ccc(CN2CCN(C(=O)C(=O)Nc3ccc4c(c3)c(C)cn4C)CC2)cc1 :: Toxic
2. Cc1ccc(CN2CCN(C(=O)C(=O)Nc3cc4ccn(C)c4cc3F)CC2)cc1 :: Toxic
3. O=C(NCc1ccc2[nH]ccc2c1)N1CC(COc2ccc(C(F)(F)F)cc2)C1 :: Non-Toxic
4. Cc1ccc(CN2CCN(C(=O)C(=O)Nc3cc(F)c4[nH]ccc4c3)CC2)cc1 :: Toxic
5. Cc1ccc(CN2CCN(C(=O)C(=O)Nc3ccc4c(ccn4C)c3)CC2)cc1 :: Non-Toxic

###

Test Name: Plasma concentration in Wistar rat at 3 mg/kg, ip measured after 35 mins by HPLC-MS/MS analysis
Assay type: ADME, organism-based
Property Measured: concentration at 35 min (nM)

1) O=C(NCc1ccc2[nH]ccc2c1)N1CC(COc2ccc(C(F)(F)F)cc2)C1 :: 2220
2) Cc1ccc(CN2CCN(C(=O)C(=O)Nc3ccc4c(ccn4C)c3)CC2)cc1 :: 54

###

Recorded concentration at 1 h for the following molecules
Test Name: Drug uptake in NMRI mouse brain at 3 mg/kg, ip measured after 1 hr by HPLC-MS/MS analysis
Assay type: ADME, organism-based
Study Conditions: read-out: Ct
Property Measured: concentration at 1 h (nM)

1. Cc1ccc(CN2CCN(C(=O)C(=O)Nc3ccc4c(ccn4C)c3)CC2)cc1 :: 64
2. O=C(NCc1ccc2[nH]ccc2c1)N1CC(COc2ccc(C(F)(F)F)cc2)C1 :: 2210
3. Cc1ccc(OC2CCN(C(=O)C(=O)Nc3ccc4c(ccn4C)c3)CC2)cc1 :: 297
4. Cc1ccc(Oc2ccc(C(=O)C(=O)Nc3ccc4c(ccn4C)c3)cn2)cc1 :: 492

###

Target Or System: Neuronal acetylcholine receptor subunit alpha-7 (Homo sapiens, UniProt P36544)
Sequence (P36544 whole entry): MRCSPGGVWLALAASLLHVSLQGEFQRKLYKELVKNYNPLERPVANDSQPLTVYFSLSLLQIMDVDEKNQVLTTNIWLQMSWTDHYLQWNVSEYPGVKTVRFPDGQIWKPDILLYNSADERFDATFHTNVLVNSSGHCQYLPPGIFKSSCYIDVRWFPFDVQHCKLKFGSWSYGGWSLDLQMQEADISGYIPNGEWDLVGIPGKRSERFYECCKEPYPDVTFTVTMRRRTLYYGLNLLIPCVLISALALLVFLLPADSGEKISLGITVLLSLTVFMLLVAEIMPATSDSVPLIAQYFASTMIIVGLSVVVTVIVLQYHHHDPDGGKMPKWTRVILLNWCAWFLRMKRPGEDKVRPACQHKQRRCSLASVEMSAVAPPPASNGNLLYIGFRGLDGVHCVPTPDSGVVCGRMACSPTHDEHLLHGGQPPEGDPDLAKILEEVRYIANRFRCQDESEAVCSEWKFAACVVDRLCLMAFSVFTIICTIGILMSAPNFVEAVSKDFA
Test Name: Positive allosteric modulator activity at human alpha7 nAChR expressed in Flp-In-HEK293 cells co-expressing RIC-3 assessed as potentiation of PNU282987-induced calcium influx measured after 10 mins by FLIPR assay
Assay type: cell-based, Flp-In-293
Study Conditions: flp-in-293
Property Measured: EC50

1) Cc1ccc(CN2CCC(NC(=O)Nc3ccc4c(ccn4C)c3)CC2)cc1 :: Not Active
2) COCC(C(=O)Nc1ccc2c(ccn2C)c1)N1CCC(Oc2ccc(C)cc2)CC1 (centres undefined) :: Not Active
3) Cc1ccc(CN2C[C@@H](C)N(C(=O)C(=O)Nc3ccc4[nH]ccc4c3)C[C@@H]2C)cc1 :: Not Active
4) Cc1ccc(CN2CCN(C(=O)C(=O)NCc3ccc4c(ccn4C)c3)CC2)cc1 :: Not Active

###

Recorded concentration at 35 min for the following molecules
Test Name: Drug uptake in Wistar rat brain at 3 mg/kg, ip measured after 35 mins by HPLC-MS/MS analysis
Assay type: ADME, organism-based
Study Conditions: read-out: Ct
Property Measured: concentration at 35 min (nM)

1) O=C(NCc1ccc2[nH]ccc2c1)N1CC(COc2ccc(C(F)(F)F)cc2)C1 :: 3110
2) Cc1ccc(CN2CCN(C(=O)C(=O)Nc3ccc4c(ccn4C)c3)CC2)cc1 :: 207

###

Target Or System: Neuronal acetylcholine receptor subunit alpha-7 (Homo sapiens)
Test Name: Positive allosteric modulator activity at human alpha7 nAChR expressed in Flp-In-HEK293 cells co-expressing RIC-3 assessed as potentiation of PNU282987-induced calcium influx measured after 10 mins by FLIPR assay
Assay type: cell-based, Flp-In-293
Study Conditions: read-out: EC50
pEC50: −log10 of the molar value.
Recorded pEC50 for the following compounds
Property Measured: pEC50

1) Cc1ccc(OC2CCN(C(=O)C(=O)Nc3ccc4[nH]ccc4c3)CC2)cc1 :: 6.59
2) Cn1ccc2cc(CNC(=O)N3CC(COc4ccc(F)cc4)C3)ccc21 :: 6.66
3) Cc1ccc(CN2CCN(C(=O)C(=O)Nc3ccn4cccc4c3)CC2)cc1 :: 5.48
4) Cc1ccc(OC2CCN(C(=O)NCc3ccc4c(ccn4C)c3)CC2)cc1 :: 6.68
5) Cc1ccc(CN2CCN(C(=O)C(=O)Nc3ccc4c(c3)c(F)cn4C)CC2)cc1 :: 7.07

###

Test Name: Mutagenicity in Salmonella typhimurium TA100 in absence of rat liver S9 fraction by AMES test
Type: toxicity
Study Conditions: salmonella enterica subsp. enterica serovar typhimurium
Property Measured: Activity

1. Cc1ccc(CN2CCN(C(=O)C(=O)Nc3ccc4c(c3)c(Cl)cn4C)CC2)cc1 :: Toxic
2. O=C(NCc1ccc2[nH]ccc2c1)N1CC(COc2ccc(C(F)(F)F)cc2)C1 :: Non-Toxic
3. Cc1ccc(CN2CCN(C(=O)C(=O)Nc3ccc4c(c3)c(F)cn4C)CC2)cc1 :: Toxic
4. Cc1ccc(CN2CCN(C(=O)C(=O)Nc3ccc4c(ccn4C)c3)CC2)cc1 :: Non-Toxic
5. Cc1ccc(CN2CCN(C(=O)C(=O)Nc3ccc4c(F)cn(C)c4c3)CC2)cc1 :: Toxic

###

Target Or System: Voltage-gated inwardly rectifying potassium channel KCNH2 (Homo sapiens, UniProt Q12809)
Sequence (Q12809 whole entry): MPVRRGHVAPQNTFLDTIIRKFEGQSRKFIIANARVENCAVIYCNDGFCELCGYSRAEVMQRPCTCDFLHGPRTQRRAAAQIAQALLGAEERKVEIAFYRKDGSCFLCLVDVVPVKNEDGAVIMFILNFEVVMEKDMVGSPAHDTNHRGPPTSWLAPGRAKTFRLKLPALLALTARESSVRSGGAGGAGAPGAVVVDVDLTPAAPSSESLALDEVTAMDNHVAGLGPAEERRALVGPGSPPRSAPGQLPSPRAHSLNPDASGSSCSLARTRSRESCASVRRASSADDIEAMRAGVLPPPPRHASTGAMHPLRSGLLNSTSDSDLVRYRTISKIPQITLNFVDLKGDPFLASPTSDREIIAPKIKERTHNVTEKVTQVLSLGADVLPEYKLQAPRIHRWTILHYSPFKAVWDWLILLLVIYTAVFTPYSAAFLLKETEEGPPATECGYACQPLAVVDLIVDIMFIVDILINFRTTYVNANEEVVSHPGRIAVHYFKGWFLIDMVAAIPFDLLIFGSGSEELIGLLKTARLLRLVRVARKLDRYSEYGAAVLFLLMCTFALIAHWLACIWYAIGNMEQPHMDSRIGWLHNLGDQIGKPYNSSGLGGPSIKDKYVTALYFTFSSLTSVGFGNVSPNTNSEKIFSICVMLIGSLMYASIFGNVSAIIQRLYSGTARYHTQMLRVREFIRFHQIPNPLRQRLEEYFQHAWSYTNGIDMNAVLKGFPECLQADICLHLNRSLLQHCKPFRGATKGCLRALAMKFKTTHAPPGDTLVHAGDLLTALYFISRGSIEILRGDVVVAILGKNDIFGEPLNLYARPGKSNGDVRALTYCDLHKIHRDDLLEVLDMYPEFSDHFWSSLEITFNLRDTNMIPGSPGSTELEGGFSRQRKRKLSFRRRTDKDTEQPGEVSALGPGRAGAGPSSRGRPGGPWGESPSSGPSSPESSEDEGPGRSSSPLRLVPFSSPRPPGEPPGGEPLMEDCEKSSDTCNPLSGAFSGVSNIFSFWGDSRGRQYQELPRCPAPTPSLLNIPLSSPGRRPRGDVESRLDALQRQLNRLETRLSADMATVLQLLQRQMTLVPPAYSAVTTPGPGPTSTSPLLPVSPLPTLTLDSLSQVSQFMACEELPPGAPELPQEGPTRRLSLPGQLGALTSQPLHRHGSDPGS
Test Name: Inhibition of human ERG channel expressed in CHO cells measured after 7 to 10 mins at -80 mV holding potential by whole cell patch clamp assay
Property Measured: IC50 (µM)

1. Cc1ccc(CN2CCN(C(=O)C(=O)Nc3ccc4c(ccn4C)c3)CC2)cc1 :: 7.5

###

Recorded microsomal CLint at 1 µM for the following compounds
Test Name: Metabolic stability in Wistar rat liver microsomes assessed as intrinsic clearance at 1 uM measured per mg protein upto 40 mins
Format: ADME, Microsome
Study Conditions: read-out: CLH
Property Measured: microsomal CLint at 1 µM (µL/min/mg)

1. Cc1ccc(CN2CCN(C(=O)C(=O)Nc3cc(F)c4[nH]ccc4c3)CC2)cc1 :: 130
2. Cc1ccc(CN2CCN(C(=O)C(=O)Nc3ccc4c(c3)CCN4C)CC2)cc1 :: 23
3. Cc1ccc(Oc2ccc(C(=O)C(=O)Nc3ccc4c(ccn4C)c3)cn2)cc1 :: 59
4. Cc1ccc(Oc2ccc(C(=O)C(=O)Nc3ccc4c(ccn4C)c3)cc2)cc1 :: 48
5. Cc1ccc(CN2CCN(C(=O)C(=O)Nc3cnc4c(ccn4C)c3)CC2)cc1 :: 56
6. Cc1ccc(CN2CCN(C(=O)C(=O)Nc3cnc4c(c3)c(F)cn4C)CC2)cc1 :: 41
7. Cc1ccc(CN2CCN(C(=O)C(=O)Nc3ccc4c(c3)c(F)cn4C)CC2)cc1 :: 192
8. Cc1ccc(OC2CC3CCC(C2)N3C(=O)C(=O)Nc2ccc3[nH]ccc3c2)cc1 (configuration not stated) :: 61
9. Cc1ccc(Oc2cnc(C(=O)C(=O)Nc3ccc4c(ccn4C)c3)cn2)cc1 :: 127
10. Cc1ccc(CN2CCN(C(=O)C(=O)Nc3ccc4[nH]c(C)c(C)c4c3)CC2)cc1 :: 56
11. Cc1ccc(CN2CCN(C(=O)C(=O)Nc3ccc4c(c3)c(C)cn4C)CC2)cc1 :: 140
12. Cc1ccc(CN2CCN(C(=O)C(=O)Nc3ccc4c(ccn4C)c3)CC2)cc1 :: 158

###

Test Name: Mutagenicity in Salmonella typhimurium TA1535 in presence of rat liver S9 fraction by AMES test
Type: toxicity, subcellular
Study Conditions: salmonella enterica subsp. enterica serovar typhimurium
Property Measured: Activity

1) Cc1ccc(CN2CCN(C(=O)C(=O)Nc3cc4ccn(C)c4cc3F)CC2)cc1 :: Toxic
2) O=C(NCc1ccc2[nH]ccc2c1)N1CC(COc2ccc(C(F)(F)F)cc2)C1 :: Non-Toxic
3) Cc1ccc(CN2CCN(C(=O)C(=O)Nc3ccc4c(c3)c(Cl)cn4C)CC2)cc1 :: Toxic
4) Cc1ccc(CN2CCN(C(=O)C(=O)Nc3cc(F)c4[nH]ccc4c3)CC2)cc1 :: Toxic
5) Cc1ccc(CN2CCN(C(=O)C(=O)Nc3ccc4c(c3)c(C)cn4C)CC2)cc1 :: Toxic
6) Cc1ccc(CN2CCN(C(=O)C(=O)Nc3ccc4c(ccn4C)c3)CC2)cc1 :: Non-Toxic
7) Cc1ccc(CN2CCN(C(=O)C(=O)Nc3ccc4c(F)cn(C)c4c3)CC2)cc1 :: Toxic
8) Cc1ccc(CN2CCN(C(=O)C(=O)Nc3ccc4[nH]c(C)c(C)c4c3)CC2)cc1 :: Toxic
9) Cc1ccc(CN2CCN(C(=O)C(=O)Nc3ccc4c(c3)c(F)cn4C)CC2)cc1 :: Toxic

###

Recorded Kp at 35 min for the following compounds
Test Name: Ratio of drug level in Wistar rat brain to plasma at 3 mg/kg, ip measured after 35 mins by HPLC-MS/MS analysis
Type: ADME, organism-based
Study Conditions: read-out: BPR
Property Measured: Kp at 35 min

1) Cc1ccc(CN2CCN(C(=O)C(=O)Nc3ccc4c(ccn4C)c3)CC2)cc1 :: 3.8
2) O=C(NCc1ccc2[nH]ccc2c1)N1CC(COc2ccc(C(F)(F)F)cc2)C1 :: 1.4
